Biological target: human topoisomerase II (Homo sapiens)
Sequence (P11388 whole entry): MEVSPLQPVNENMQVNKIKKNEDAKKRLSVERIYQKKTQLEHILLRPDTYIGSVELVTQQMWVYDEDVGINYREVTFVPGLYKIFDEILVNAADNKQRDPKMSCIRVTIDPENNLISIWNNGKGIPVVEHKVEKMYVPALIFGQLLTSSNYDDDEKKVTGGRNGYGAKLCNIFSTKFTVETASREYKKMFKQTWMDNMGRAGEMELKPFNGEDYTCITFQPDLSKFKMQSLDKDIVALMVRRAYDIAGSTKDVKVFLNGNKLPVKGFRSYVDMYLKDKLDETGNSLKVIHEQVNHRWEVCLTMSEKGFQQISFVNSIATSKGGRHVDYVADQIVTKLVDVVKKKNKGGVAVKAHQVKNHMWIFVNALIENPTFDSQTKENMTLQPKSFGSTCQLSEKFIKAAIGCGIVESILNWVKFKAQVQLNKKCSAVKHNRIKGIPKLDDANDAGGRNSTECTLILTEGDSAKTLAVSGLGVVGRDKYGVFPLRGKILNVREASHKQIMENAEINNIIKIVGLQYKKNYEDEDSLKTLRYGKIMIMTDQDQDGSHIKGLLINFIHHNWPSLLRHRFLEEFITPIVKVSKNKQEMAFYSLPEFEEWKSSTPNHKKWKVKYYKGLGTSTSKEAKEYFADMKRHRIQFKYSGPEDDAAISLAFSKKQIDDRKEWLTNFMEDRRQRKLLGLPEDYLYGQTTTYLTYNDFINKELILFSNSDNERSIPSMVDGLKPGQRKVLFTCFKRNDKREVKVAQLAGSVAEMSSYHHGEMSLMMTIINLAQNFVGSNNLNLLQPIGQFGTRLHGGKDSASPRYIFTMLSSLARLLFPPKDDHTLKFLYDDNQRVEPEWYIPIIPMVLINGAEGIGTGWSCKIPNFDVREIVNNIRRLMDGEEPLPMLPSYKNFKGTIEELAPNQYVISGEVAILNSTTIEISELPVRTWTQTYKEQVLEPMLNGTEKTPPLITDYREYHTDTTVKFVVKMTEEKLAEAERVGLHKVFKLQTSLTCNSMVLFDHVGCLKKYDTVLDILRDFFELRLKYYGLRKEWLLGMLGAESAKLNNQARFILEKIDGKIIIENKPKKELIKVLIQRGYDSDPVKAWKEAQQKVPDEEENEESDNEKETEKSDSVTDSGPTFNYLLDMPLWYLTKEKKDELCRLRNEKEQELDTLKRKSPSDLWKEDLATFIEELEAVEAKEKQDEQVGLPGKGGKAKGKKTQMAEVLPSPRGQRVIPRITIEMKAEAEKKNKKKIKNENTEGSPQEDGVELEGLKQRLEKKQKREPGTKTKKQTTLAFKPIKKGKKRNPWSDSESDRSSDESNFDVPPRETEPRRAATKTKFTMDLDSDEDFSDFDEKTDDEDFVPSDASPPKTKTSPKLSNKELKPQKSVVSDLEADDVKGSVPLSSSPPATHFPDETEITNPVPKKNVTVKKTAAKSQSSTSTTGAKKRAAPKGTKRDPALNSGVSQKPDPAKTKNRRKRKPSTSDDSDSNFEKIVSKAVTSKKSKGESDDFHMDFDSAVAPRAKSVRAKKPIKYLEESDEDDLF
Assay: DNA Topo II inhibition (kDNA decatenation) assay
Type: biochemical
Details: conc 1 (μM)
Text: The ATP-dependent decatenation of kinetoplast DNA (kDNA) obtained from Crithidia fasciculata, which consists of a network of numerous minicircles (2.3 Kb) and some maxicircles, was used to measure topoisomerase II inhibition. […] In preliminary tests, the quantity of topoisomerase II (5 units) was changed to decatenate almost 100% of the kDNA under these assay circumstances. […]
measured attribute: %inh TOPO II (%)
The response must be a number in % with no trailing unit.

molecule: CCOC(=O)C1=C(C)N=c2sc(=Cc3ccc(OC)cc3OC)c(=O)n2C1c1ccc(OC)cc1OC (centres unmarked)
unit info: %
%inh TOPO II: 45
//
molecule: CCOC(=O)C1=C(C)N=C2SC=C(NC(=O)Nc3ccc(Cl)cc3)N2C1c1ccc(OC)cc1OC (centres unmarked)
unit info: %
%inh TOPO II: 34
//
molecule: CCOC(=O)C1=C(C)N=c2sc(=Cc3cc(OC)c(OC)c(OC)c3)c(=O)n2C1c1ccc(OC)cc1OC (centres unmarked)
unit info: %
%inh TOPO II: 41
//
molecule: COc1cccc2c1C(=O)c1c(O)c3c(c(O)c1C2=O)C[C@@](O)(C(=O)CO)C[C@@H]3O[C@H]1C[C@H](N)[C@H](O)[C@H](C)O1 [Doxorubicin, reference compound]
unit info: %
%inh TOPO II: 51

[ask] Provide value of %inh TOPO II for this record tested with human topoisomerase II (Homo sapiens): CCOC(=O)C1=C(C)N=C2SC=C(NC(=O)CN3CCN(CC)CC3)N2C1c1ccc(OC)cc1OC (centres unmarked)
[reply] 42
